# Tested on: DU-4475
# PROTOCOL: drug sensitivity score (DSS), CellTiter-Glo (DSS (AUC-based score)); higher = stronger drug effect (viability inhibition or cytotoxicity); extreme values may be limits of the assay
# PARTICULARS: incubation time: 72 h
Label label 1 for high-side drug sensitivity score (at or above 4) and label 0 for low-side drug sensitivity score (below it).

# example entries with known answers
>>> category("COc1cc2c(Oc3ccc4[nH]c(C)cc4c3F)ncnc2cc1OCCCN1CCCC1")
"label 0"
>>> category("O=C(O)C1(C(=O)O)CCC1.[NH2-].[NH2-].[Pt+2]")
"label 0"
>>> category("Nc1ccccc1NC(=O)c1ccc(CNC(=O)OCc2cccnc2)cc1")
"label 1"
>>> category("CC(=O)Nc1cccc(-n2c(=O)n(C3CC3)c(=O)c3c(Nc4ccc(I)cc4F)n(C)c(=O)c(C)c32)c1")
"label 1"
>>> category("Oc1ncc(N(CCCl)CCCl)c(O)n1")
"label 0"

stdin: Answer whether drug sensitivity score of `O=C(Cc1ccc(-c2ccc(OCCN3CCOCC3)cc2)cn1)NCc1ccccc1` is greater than or equal to 4.
stdout: label 1

stdin: Is the recorded value of drug sensitivity score equal to or greater than 4 for this compound? `CCCS(=O)(=O)Nc1ccc(F)c(C(=O)c2c[nH]c3ncc(-c4ccc(Cl)cc4)cc23)c1F`
stdout: label 1

stdin: Answer whether drug sensitivity score of `Cc1cnc(NC(=O)Nc2cc(Br)c(C)cc2OC[C@@H]2CNCCO2)cn1` is greater than or equal to 4.
stdout: label 0

stdin: Test whether the compound `Nc1nc(F)nc2c1ncn2[C@@H]1O[C@H](CO)[C@@H](O)[C@@H]1O` records drug sensitivity score of 4 or higher.
stdout: label 0

stdin: Test whether the compound `Nc1ncn([C@H]2C[C@H](O)[C@@H](CO)O2)c(=O)n1` records drug sensitivity score of 4 or higher.
stdout: label 0

----------
# System: BT-474
# PROTOCOL: normalised viability (% of control), CellTiter-Blue; higher = more viable cells (about 100 = DMSO control)
# PARTICULARS: 10 nM; incubation time: 72 h
VALUE_TYPE: normalised viability
Output should be the measured figure followed by the unit it is expressed in.

>>> reading("C=CC(=O)N1CCC[C@@H](n2nc(-c3ccc(Oc4ccccc4)cc3)c3c(N)ncnc32)C1")
"84.3%"
>>> reading("CC[C@@H]1C(=O)N(C)c2cnc(Nc3ccc(C(=O)NC4CCN(C)CC4)cc3OC)nc2N1C1CCCC1")
"44.4%"
>>> reading("COc1cc2c(Oc3ccc4[nH]c(C)cc4c3F)ncnc2cc1OCCCN1CCCC1")
"98.4%"

Could you now consider this next compound?
stdin: State, in one line, measured normalised viability of `O=C(/C=C/c1cccnc1)NCCCCC1CCN(C(=O)c2ccccc2)CC1`
stdout: 91.6%

----------
# Test system: BT-549
# PROTOCOL: normalised response (% of control), CellTiter-Glo; higher = more viable cells (100 = DMSO, 0 = benzethonium chloride kill control)
# PARTICULARS: incubation time: 72 h
Some compounds, each annotated with its measured normalised response.
Answer format: numeric, % implied, no suffix.

stdin: Tell me measured normalised response for COc1cc2c(NC3CCN(C(C)C)CC3)nc(C3CCCCC3)nc2cc1OCCCN1CCCC1 [UNC0638] (1 nM) please.
stdout: 103

stdin: Please look at this compound and report its normalised response: CCCCC(=O)OCC(=O)[C@]1(O)Cc2c(O)c3c(c(O)c2[C@@H](O[C@H]2C[C@H](NC(=O)C(F)(F)F)[C@H](O)[C@H](C)O2)C1)C(=O)c1c(OC)cccc1C3=O [Valrubicin] (0.5 nM)
stdout: 97.1

stdin: Kindly indicate its recorded normalised response. Item: CC(=O)Nc1cccc(-n2c(=O)n(C3CC3)c(=O)c3c(Nc4ccc(I)cc4F)n(C)c(=O)c(C)c32)c1 [Trametinib] (0.25 nM)
stdout: 92.7
